B1: glmS ribozyme (parent)
chain: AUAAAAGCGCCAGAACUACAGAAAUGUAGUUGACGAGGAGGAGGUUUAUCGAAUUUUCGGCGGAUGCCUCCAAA

Variants of: B1
method: self-cleavage kobs at 640 uM GlcN6P; higher = faster cleavage; RNA array
condition set: with glucosamine-6-phosphate
Fewer inactive variants are shown than the library holds.
Is self-cleavage kobs at 640 uM GlcN6P at least 0.0001 s⁻¹? Then label 1. If not, label 0.

See these solved cases before continuing.
variant description: C8G G44A
assigned class: label 0
--
variant description: A12U U31G U69C
assigned class: label 1
--
variant description: G9C G63U G66A C68A C71A
assigned class: label 0

Proceed to the following item.
### Prompt Is reported self-cleavage kobs at 640 uM GlcN6P greater than or equal to 0.0001 s⁻¹ here: C16U G37U C68G U69G
### Response label 1

Ref: the supplement of paper PMC7125110
